Consider the following compounds; for each one, report its MIC.
Tested on: MRSA ATCC BAA 1556 (USA300)
Procedure Text: In-house broth microdilution MIC screening
Format: cell-based, Staphylococcus aureus
Measurement Conditions: Staphylococcus aureus; broth microdilution; read-out: MIC Value, MRSA ATCC BAA 1556

Some compounds with recorded MIC:
- Compound: "CCCCCCCCCCNC(=O)CNC1(C)CC(OC2C(Oc3c4cc5cc3Oc3ccc(cc3Cl)C(O)C3NC(=O)C(NC(=O)C5NC(=O)C(CC(N)=O)NC(=O)C(NC(=O)C(CC(C)C)NC)C(O)c5ccc(c(Cl)c5)O4)c4ccc(O)c(c4)-c4c(O)cc(O)cc4C(C(=O)O)NC3=O)OC(CO)C(O)C2O)OC(C)C1O (stereo not shown)"
  MIC: "0.031 µg/mL"
- Compound: "CCCCCCCCCCCCCCOC(=O)CNC1(C)CC(OC2C(Oc3c4cc5cc3Oc3ccc(cc3Cl)C(O)C3NC(=O)C(NC(=O)C5NC(=O)C(CC(N)=O)NC(=O)C(NC(=O)C(CC(C)C)NC)C(O)c5ccc(c(Cl)c5)O4)c4ccc(O)c(c4)-c4c(O)cc(O)cc4C(C(=O)O)NC3=O)OC(CO)C(O)C2O)OC(C)C1O (stereo not shown)"
  MIC: "4 µg/mL"
- Compound: "CCCCCCCCOC(=O)CNC1(C)CC(OC2C(Oc3c4cc5cc3Oc3ccc(cc3Cl)C(O)C3NC(=O)C(NC(=O)C5NC(=O)C(CC(N)=O)NC(=O)C(NC(=O)C(CC(C)C)NC)C(O)c5ccc(c(Cl)c5)O4)c4ccc(O)c(c4)-c4c(O)cc(O)cc4C(C(=O)O)NC3=O)OC(CO)C(O)C2O)OC(C)C1O (stereo not shown)"
  MIC: "0.75 µg/mL"

Any idea what MIC was measured for CNC(CC(C)C)C(=O)NC1C(=O)NC(CC(N)=O)C(=O)NC2C(=O)NC3C(=O)NC(C(=O)NC(C(=O)O)c4cc(O)cc(O)c4-c4cc3ccc4O)C(O)c3ccc(c(Cl)c3)Oc3cc2cc(c3OC2OC(CO)C(O)C(O)C2OC2CC(C)(NCC(=O)O)C(O)C(C)O2)Oc2ccc(cc2Cl)C1O (stereo not shown) ?
> 128 µg/mL

###

Consider the following compounds; for each one, report its MIC.
System: S. aureus
Procedure Text: Expanded panel broth microdilution MIC/MBC
Measurement Conditions: Staphylococcus aureus, NRS23, S. aureus NRS23, hVISA
Please don't drop the unit; write it after the number.

- Compound: "CCCCCCCCCCNCCN[C@@]1(C)C[C@H](O[C@H]2[C@H](Oc3c4cc5cc3Oc3ccc(cc3Cl)[C@@H](O)[C@@H](NC(=O)[C@@H](CC(C)C)NC)C(=O)N[C@@H](CC(N)=O)C(=O)N[C@H]5C(=O)N[C@H]3C(=O)N[C@H](C(=O)N[C@H](C(=O)O)c5cc(O)c(CNCP(=O)(O)O)c(O)c5-c5cc3ccc5O)[C@H](O)c3ccc(c(Cl)c3)O4)O[C@H](CO)[C@@H](O)[C@@H]2O)O[C@@H](C)[C@H]1O"
  MIC: "0.25 µg/mL"
- Compound: "CCCCCCCCCCNC(=O)CNC1(C)CC(OC2C(Oc3c4cc5cc3Oc3ccc(cc3Cl)C(O)C3NC(=O)C(NC(=O)C5NC(=O)C(CC(N)=O)NC(=O)C(NC(=O)C(CC(C)C)NC)C(O)c5ccc(c(Cl)c5)O4)c4ccc(O)c(c4)-c4c(O)cc(O)cc4C(C(=O)O)NC3=O)OC(CO)C(O)C2O)OC(C)C1O (stereo not shown)"
  MIC: "0.12 µg/mL"
- Compound: "CN[C@H](CC(C)C)C(=O)N[C@H]1C(=O)N[C@@H](CC(N)=O)C(=O)N[C@H]2C(=O)N[C@H]3C(=O)N[C@H](C(=O)N[C@H](C(=O)O)c4cc(O)cc(O)c4-c4cc3ccc4O)[C@H](O)c3ccc(c(Cl)c3)Oc3cc2cc(c3O[C@@H]2O[C@H](CO)[C@@H](O)[C@H](O)[C@H]2O[C@H]2C[C@](C)(N)[C@H](O)[C@H](C)O2)Oc2ccc(cc2Cl)[C@H]1O"
  MIC: "2 µg/mL"

Attention now shifts to the item below.
Any idea what MIC was measured for "CCCCCCCCCCNCCN[C@@]1(C)C[C@H](O[C@H]2[C@H](Oc3c4cc5cc3Oc3ccc(cc3Cl)[C@@H](O)[C@@H](NC(=O)[C@@H](CC(C)C)NC)C(=O)N[C@@H](CC(N)=O)C(=O)N[C@H]5C(=O)N[C@H]3C(=O)N[C@H](C(=O)N[C@H](C(=O)O)c5cc(O)cc(O)c5-c5cc3ccc5O)[C@H](O)c3ccc(c(Cl)c3)O4)O[C@H](CO)[C@@H](O)[C@@H]2O)O[C@@H](C)[C@H]1O" ?
0.03 µg/mL

Where do the numbers come from? From paper PMC8373216.
